Target: Monoglyceride lipase (Homo sapiens)
Sequence (Q99685 whole entry): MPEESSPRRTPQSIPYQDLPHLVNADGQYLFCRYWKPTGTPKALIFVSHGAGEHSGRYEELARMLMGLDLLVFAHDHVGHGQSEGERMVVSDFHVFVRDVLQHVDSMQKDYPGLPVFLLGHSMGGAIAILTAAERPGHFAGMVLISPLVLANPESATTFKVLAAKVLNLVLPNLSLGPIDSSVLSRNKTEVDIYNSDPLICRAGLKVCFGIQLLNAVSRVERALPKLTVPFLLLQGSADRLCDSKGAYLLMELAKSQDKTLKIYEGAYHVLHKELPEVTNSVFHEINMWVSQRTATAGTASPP
Assay: Inhibition of human MAGL assessed as [3H]-2-OG hydrolysis preincubated for 30 mins before [3H]-2-OG addition measured after 10 mins by liquid scintillation counting
Exercise: state measured IC50 for each of the molecules provided.
Supply the numeric figure in nM, leaving out any unit text.

Problem: Form field - read-out: IC50; system: Monoglyceride lipase (Homo sapiens); submitted item: O=C(N1CCN(c2ccc([N+](=O)[O-])cc2)CC1)n1nnc2ccccc21
Solution: 20

Problem: Hello, I am looking for reported IC50 with Monoglyceride lipase (Homo sapiens) for COc1ccc(N2CCN(C(=O)n3nnc4ccccc43)CC2)cc1 . Could you help?
Solution: 32

Problem: // fetch Monoglyceride lipase (Homo sapiens) IC50 for O=C(Nc1ccccc1)c1cccc(CN2CCN(C(=O)n3nnc4ccccc43)CC2)c1
Solution: 7

Problem: Could you share what IC50 was measured for CN1CCN(C(=O)c2cccc(CN3CCN(C(=O)n4nnc5ccccc54)CC3)c2)CC1 , tested on Monoglyceride lipase (Homo sapiens)?
Solution: 324

Problem: Query IC50 on Monoglyceride lipase (Homo sapiens) for O=C(N1CCN(Cc2ccc3ccccc3c2)CC1)n1nnc2ccccc21
Solution: 9

Problem: Query IC50 on Monoglyceride lipase (Homo sapiens) for O=C(N1CCN(Cc2ccccc2)CC1)n1nnc2ccccc21
Solution: 8

Problem: Query the reported IC50 for Monoglyceride lipase (Homo sapiens); item: O=C(N1CCN(Cc2ccc(F)cc2)CC1)n1nnc2ccccc21
Solution: 10

Problem: What measured IC50 is associated with O=C(N1CCN(Cc2ccc(-c3ccccc3)cc2)CC1)n1nnc2ccccc21 on Monoglyceride lipase (Homo sapiens)?
Solution: 62
